biological target: NADPH oxidase 2 (Homo sapiens) (UniProt P04839); experiment: compounds shifting NOX2 Amplex Red fluorescence – cell-based, HEK293-NOX2, PMA-stimulated, NOX inhibitor project, primary screen (AID 1159); conditions: 45 min, higher = more signal, called active from +8 up or from −8 down; note: test concentration not given here
Sequence (P04839 whole entry, looked up): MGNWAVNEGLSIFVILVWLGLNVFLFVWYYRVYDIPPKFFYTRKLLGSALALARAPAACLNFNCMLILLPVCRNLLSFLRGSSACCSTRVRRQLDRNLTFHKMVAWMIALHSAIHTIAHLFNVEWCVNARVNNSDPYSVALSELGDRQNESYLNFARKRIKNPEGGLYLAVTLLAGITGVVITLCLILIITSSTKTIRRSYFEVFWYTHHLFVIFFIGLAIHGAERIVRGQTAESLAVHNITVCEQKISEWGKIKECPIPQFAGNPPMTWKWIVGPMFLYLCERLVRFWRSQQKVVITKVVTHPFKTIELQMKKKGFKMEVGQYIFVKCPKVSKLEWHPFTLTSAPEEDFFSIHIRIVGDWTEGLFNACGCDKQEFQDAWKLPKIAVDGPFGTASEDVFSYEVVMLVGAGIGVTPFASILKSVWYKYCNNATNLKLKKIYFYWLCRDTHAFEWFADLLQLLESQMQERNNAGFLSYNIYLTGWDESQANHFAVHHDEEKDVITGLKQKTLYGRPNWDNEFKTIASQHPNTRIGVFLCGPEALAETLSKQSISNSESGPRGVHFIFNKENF
z-score below -0.2 gives 0; z-score at or above it gives 1.

| Molecule | Qualitative label |
| --- | --- |
| O=C(NCc1ccc(F)cc1)[C@H]1C[C@H]2C(=O)N3CCC[C@H]3C(=O)N2[C@H]1c1ccc(O)cc1 | 0 |
| O=C1C2C=CC(C(O)c3c(F)cccc3Cl)N(Nc3ccc([N+](=O)[O-])cc3)C2C(=O)N1c1ccccc1 (stereo unspecified) | 0 |
| C=C(C)[C@@H]1CC=C(C(O)C2C=CC3C(=O)N(C)C(=O)C3N2Nc2ccc([N+](=O)[O-])cc2[N+](=O)[O-])CC1 (stereo partly specified) | 1 |
| CC(C)NC(=O)[C@@]1(c2ccc([N+](=O)[O-])cc2)CC(=O)N(CC23CC4CC(CC(C4)C2)C3)[C@@H]1c1ccc(CO)cc1 | 1 |
| CCCCC(O)C1C=CC2C(=O)N(c3ccccc3)C(=O)C2N1Nc1ccc(C#N)cc1 (stereo unspecified) | 0 |
| COC(=O)C1=CC(CCCO)=CC(c2cccs2)N(Cc2cc3c(cc2Br)OCO3)C=C1C(=O)OC (stereo unspecified) | 1 |
| CC=CC(O)C1C=CC2C(=O)NC(=O)C2N1Nc1ccc(Cl)cc1Cl (stereo unspecified) | 0 |
| CCCC[C@H]1C[C@@H]1[C@@H]1N(C(C)=O)[C@H](c2cccc(OC)c2)CC12CC2 | 0 |
| COCCOC(=O)N1C(=O)[C@@]2(c3cc(C#CCNC(N)=O)ccc31)[C@H](C(=O)Nc1nc3ccccc3s1)[C@H]1C(=O)O[C@H](c3ccccc3)[C@H](c3ccccc3)N1[C@@H]2c1ccccc1OCCO | 1 |
| CCCNC(=O)[C@@]1(Sc2ccc(C)cc2)CC(=O)N(Cc2ccccc2Cl)[C@@H]1c1ccc(CO)cc1I | 1 |
| CC(C)NC(=O)[C@@]1(C)c2ccccc2C(=O)N(Cc2ccccc2)[C@H]1c1ccc(CO)cc1 | 0 |
| CCOC(=O)C1=CC[C@@H](c2ccccc2)N(S(=O)(=O)c2ccc(C)cc2)[C@H]1c1ccccc1I | 1 |
| C=C(COC)C(=O)CC[C@H](OC(=O)c1cccnc1)c1ccc(OCCO)cc1 | 0 |
| CN(C)CCCNC(=O)[C@@H]1c2ccccc2C(=O)N(Cc2ccccc2C(F)(F)F)[C@H]1c1ccc(CO)cc1 | 1 |
| C=CCNC(=O)[C@H]1[C@@H]2C(=O)O[C@@H](c3ccccc3)[C@@H](c3ccccc3)N2[C@@H](c2ccc(OCCO)cc2)[C@]12C(=O)Nc1ccc(C#CC3(O)CCCCCC3)cc12 | 1 |
| O=C1N(Cc2ccccc2)c2ccccc2C[C@@]12COC(c1ccc(OCCCO)cc1)=N2 | 0 |
| COC(=O)C(CC#Cc1ccc2c(c1)[C@]1(C(=O)N2)[C@H](C(=O)NC[C@H](O)c2ccccc2)[C@H]2C(=O)O[C@H](c3ccccc3)[C@H](c3ccccc3)N2[C@@H]1c1ccccc1OCCO)C(=O)OC | 1 |
| O=C1C[C@@](C(=O)NC2CC2)(c2ccc([N+](=O)[O-])cc2)[C@@H](c2ccc(CO)cc2)N1C1CCCCC1 | 0 |
| N#Cc1ccc(C(O)C2C=CC3C(=O)NC(=O)C3N2Nc2ccc(Cl)cc2Cl)cc1 (stereo unspecified) | 0 |
| COC(=O)[C@@]1(Cc2ccc(OC)cc2)[C@H]2c3cc(C(=O)N4CCCC4)n(Cc4ccc(Cl)c(C(F)(F)F)c4)c3C[C@H]2CN1C(=O)c1ccccc1 | 1 |
| O=C1C2C=CC(C(O)c3cccs3)N(Nc3ccc([N+](=O)[O-])cc3)C2C(=O)N1c1ccccc1 (stereo unspecified) | 0 |
| CC(C)C[C@@H]1NC(=O)[C@@]23C(=O)N[C@@H](Cc4ccccc4)C2[C@H](C)[C@@]2(C)O[C@H]2C3/C=C/C/C=C\CNC(=O)CNC1=O (stereo partly specified) | 1 |
| O=C1C=C(c2ccccc2)C(=O)C2=C1CC([C@H]1Oc3ccccc3S(=O)(=O)N3CCC[C@@H]13)=CC2 | 0 |
| CCC(CC)C(O)C1C=CC2C(=O)N(c3ccccc3)C(=O)C2N1Nc1ccccc1F (stereo unspecified) | 1 |
| COc1ccc([Si](C)(C)[C@H]2[C@H](CCO)O[C@@]3(C(=O)N(Cc4cccc(N(C=O)c5ccccc5)c4)c4ccccc43)[C@@H]2C)cc1 | 0 |
| COCCOC(=O)N1C(=O)[C@@]2(c3cc(C#CCCO)ccc31)[C@H](C(N)=O)[C@H]1C(=O)O[C@H](c3ccccc3)[C@H](c3ccccc3)N1[C@@H]2c1ccccc1OCCO | 1 |
